# system-name: Cannabinoid receptor 2 (Homo sapiens, UniProt P34972)
# Sequence (P34972 whole entry): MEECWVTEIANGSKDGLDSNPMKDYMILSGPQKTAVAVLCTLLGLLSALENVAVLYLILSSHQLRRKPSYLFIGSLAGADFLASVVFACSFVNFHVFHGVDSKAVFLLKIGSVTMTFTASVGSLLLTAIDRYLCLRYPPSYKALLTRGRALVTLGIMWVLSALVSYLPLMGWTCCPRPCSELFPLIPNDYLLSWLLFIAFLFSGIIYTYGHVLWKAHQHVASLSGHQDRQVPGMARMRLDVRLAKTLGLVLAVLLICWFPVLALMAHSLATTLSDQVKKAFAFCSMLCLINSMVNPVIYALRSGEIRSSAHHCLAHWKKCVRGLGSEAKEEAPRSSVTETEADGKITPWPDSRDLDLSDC
# procedure-text: Agonist activity at recombinant human Cb2 receptor expressed in HEK293 cells assessed as inhibition of forskolin-stimulated cAMP levels
# Type: functional, cell-based
# run-parameters: read-out: EC50
Answer each item with its documented pEC50.
One number for each entry, as −log10 of the molar value.

Consider the worked cases shown below.
{"columns": ["chem-smiles", "assay-metric", "result"],
 "data": [
  ["CC1=CC[C@H]2[C@H](C1)c1c(O)cc(/C(C)=N\\OCCCc3ccccc3)cc1OC2(C)C", "pEC50", 8.77],
  ["CC1=CC[C@H]2[C@H](C1)c1c(O)cc(/C(C)=N/OCCCC(F)(F)F)cc1OC2(C)C", "pEC50", 9.00],
  ["CC1=CC[C@H]2[C@H](C1)c1c(O)cc(/C(C)=N/OCCOc3ccccc3)cc1OC2(C)C", "pEC50", 7.30],
  ["CC1=CC[C@H]2[C@H](C1)c1c(O)cc(/C(C)=N/OCCCC#N)cc1OC2(C)C", "pEC50", 7.92],
  ["CCCCO/N=C(\\C)c1cc(O)c2c(c1)OC(C)(C)[C@H]1CC=C(C)C[C@H]21", "pEC50", 8.04]
]}

Entry CC1=CC[C@H]2[C@H](C1)c1c(O)cc(/C(C)=N/OCCN3CCCCC3)cc1OC2(C)C , Cannabinoid receptor 2 (Homo sapiens, UniProt P34972) data, pEC50 value: 7.18

###

# procedure-text: AUC in CD1 mouse urine at 10 mg/kg, po
# Type: ADME, organism-based
assay-metric: AUC (ng·h/mL)
One number for each entry, in ng·h/mL.

# molecule CC1=CC[C@H]2[C@H](C1)c1c(O)cc(/C(C)=N/OCCCC#N)cc1OC2(C)C ; its AUC = 11.3

###

# procedure-text: AUC in CD1 mouse fat at 2 mg/kg, iv
# Type: ADME, organism-based, Adipose tissue
assay-metric: AUC (ng·h/mL)
Answers are plain numbers, in ng·h/mL.

The compound listed as CC1=CC[C@H]2[C@H](C1)c1c(O)cc(/C(C)=N/OCCCC#N)cc1OC2(C)C shows AUC equal to 5390

###

# procedure-text: AUC in CD1 mouse spleen at 2 mg/kg, iv
# Type: ADME, organism-based
assay-metric: AUC (ng·h/mL)
Give bare numbers, in ng·h/mL.

Noted for CC1=CC[C@H]2[C@H](C1)c1c(O)cc(/C(C)=N/OCCCC#N)cc1OC2(C)C : its AUC reads 957

###

# procedure-text: AUC in CD1 mouse at 10 mg/kg, po
# Type: ADME, organism-based
# run-parameters: in vivo
assay-metric: AUC (ng·h/mL)
Numbers only, in ng·h/mL.

Reported AUC ( CC1=CC[C@H]2[C@H](C1)c1c(O)cc(/C(C)=N/OCCCC#N)cc1OC2(C)C ) = 1240

###

# system-name: Cannabinoid receptor 2 (Homo sapiens)
# procedure-text: Agonist activity at recombinant human Cb2 receptor expressed in HEK293 cells assessed as inhibition of forskolin-stimulated cAMP levels
# Format: functional, cell-based
# run-parameters: read-out: EC50
assay-metric: pEC50
Give bare numbers, as −log10 of the molar value.

{"columns": ["molecule", "result"],
 "data": [
  ["CC1=CC[C@H]2[C@H](C1)c1c(O)cc(/C(C)=N/OCCCc3ccccc3)cc1OC2(C)C", 8.78],
  ["CCCC(C)O/N=C(/C)c1cc(O)c2c(c1)OC(C)(C)[C@H]1CC=C(C)C[C@H]21 (mixture of isomers)", 7.94],
  ["CCCC(C)O/N=C(\\C)c1cc(O)c2c(c1)OC(C)(C)[C@H]1CC=C(C)C[C@H]21 (mixture of isomers)", 7.38]
]}

Kindly review the next molecule as well.
Looking up CC1=CC[C@H]2[C@H](C1)c1c(O)cc(/C(C)=N\OCCCC#N)cc1OC2(C)C , I see its pEC50 listed as 8.70
